measured.on: T1, rhTrkB-ECD (R&D #397-TR/CF) (human, UniProt Q16620 32-430)
T1 construct: extracellular domain; Bought protein; also called human TrkB-extracellular domain protein; human TrkB ectodomain protein
measurement.description: competition ELISA on coated rhTrkB-ECD; competitor biotinylated chimeric TOA-1 at 25 ng/ml
Listed binders paired with reported IC50
The reply should be a number in nM, with the unit left off.

[
  {
    "binder": "TOA-1 variant VH human v1.1 / VL human v1.1 (antibody, V domains shown, Human IgG; constant regions not restated; also called hu v1.1 / hu v1.1) VH: EVQLVESGGGLVQPGGSLRLSCATSGYSFTAYFMNWVRQAPGKGLEWVARINPNNGDTFYTQKFKGRFTISVDNAKNSAYLQMNSLRAEDTAVYYCARRDYFGAMDYWGQGTLVTVSS VL: DIQMTQSPSSLSASVGDRVTITCRASQTISNNLHWYQQKPGESPKLLIKSASLAISGVPSRFSGSGSGTDFTLTISSLQPEDFATYYCQQSNSWPNTFGGGTKVEIK",
    "IC50 (nM)": 10.1
  }
]

Next binder, please.
QUERY: Entry under review: TOA-1 variant VH human v1.1 / VL human v2.0 (antibody, V domains shown, Human IgG; constant regions not restated; also called hu v1.1 / hu v2.0) VH: EVQLVESGGGLVQPGGSLRLSCATSGYSFTAYFMNWVRQAPGKGLEWVARINPNNGDTFYTQKFKGRFTISVDNAKNSAYLQMNSLRAEDTAVYYCARRDYFGAMDYWGQGTLVTVSS VL: EIVMTQSPATLSVSPGERATLSCRASQTISNNLHWYQQKPGQAPRLLIYSASLAISGIPARFSGSGSGTEFTLTISSLQSEDFAVYYCQQSNSWPNTFGGGTKVEIK . Reported IC50?
RESULT: 10.7
